# Tested on: Aerobactin synthetase IucA (Klebsiella pneumoniae)
# method: IucA aerobactin synthetase inhibitors, biochemical, Tocris library, absorbance (AID 1345561);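 further: 100% = enzyme without compound and 0% = no enzyme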
# condition: purified IucA enzyme assay, absorbance (OD) read-out; active compounds read low;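 tested at 8 µM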
Calls of active or inactive are those of the source. How the calls were made is not given here.
// remaining activity lookup, one value per entry

| molecule | assayed_target | measured |
| --- | --- | --- |
| NCc1cc(=O)[nH]o1 | Aerobactin synthetase IucA (Klebsiella pneumoniae) | 112% (inactive) |
| Nc1ccncc1 | Aerobactin synthetase IucA (Klebsiella pneumoniae) | 127% (inactive) |
| CN1C2CCC1CC(OC(c1ccccc1)c1ccc(Cl)cc1)C2 (stereo not drawn) | Aerobactin synthetase IucA (Klebsiella pneumoniae) | 92.9% (inactive) |
| O=c1[nH]oc2c1CCNC2 | Aerobactin synthetase IucA (Klebsiella pneumoniae) | 79% (inactive) |

Problem: Give reported remaining activity value for CC(=O)[C@H]1CC[C@H]2[C@@H]3CCC4C[C@](C)(O)CC[C@]4(C)[C@H]3CC[C@]12C (stereo partly drawn)
Solution: 103% (inactive)

Problem: Give reported remaining activity value for `S=C=Nc1cccc(C2(N3CCCCC3)CCCCC2)c1`
Solution: 122% (inactive)

Problem: Give reported remaining activity value for NC1(c2ccccc2Cl)CCCCC1=O (stereo not drawn)
Solution: 88.2% (inactive)

Problem: Give reported remaining activity value for `NC=Nc1ccc2[nH]c3c(c2c1)C[C@@]1(O)C2Cc4ccc(O)c5c4[C@@]1(CCN2CC1CC1)[C@H]3O5`
Solution: 121% (inactive)

Problem: Give reported remaining activity value for `CC(=O)N1CC[N+](C)(C)CC1`
Solution: 90.4% (inactive)

Problem: Give reported remaining activity value for CC(N)Cc1c[nH]c2ccc(O)cc12 (stereo not drawn)
Solution: 105% (inactive)

Problem: Give reported remaining activity value for `CCCN(CCC)C1Cc2cc(OC)c(OC)cc2C1`
Solution: 120% (inactive)

Problem: Give reported remaining activity value for `Cc1nccc2c1[nH]c1ccccc12`
Solution: 108% (inactive)

Problem: Give reported remaining activity value for `NN=C(N)N`
Solution: 98% (inactive)
